- Tested on: LOLRI
- ASSAY_OVERVIEW: A. Herbicidal pre-emergence action on harmful plants (Tables A)
- Type: in vivo, Lolium rigidum
- COND: application rate 320 g/ha; visual grading after ca. 3 weeks vs untreated controls; 100% = plants have died off, 0% = as control plants
Each entry below carries its reported pre-emergence activity against LOLRI.
Just the number in %, nothing appended.

Please review the following examples before continuing.
>  <MOLECULE>
COCc1c(C(=O)N2CCCC2Cc2c(F)cccc2F)cnn1C (single isomer, unassigned) [Example I-126]

>  <MEASUREMENT_TARGET>
LOLRI

>  <MEASURED_VALUE>
90

$$$$
>  <MOLECULE>
COCc1nn(C)cc1C(=O)N1CCCC1Cc1c(F)cccc1F (single isomer, unassigned) [Example I-082]

>  <MEASUREMENT_TARGET>
LOLRI

>  <MEASURED_VALUE>
100

$$$$

Request: Quote pre-emergence activity against LOLRI reported for COCc1nn(C)cc1C(=O)N1CCCC1Cc1ccccc1C (single isomer, unassigned) [Example I-084] please.
Result: 90

Request: Identify measured pre-emergence activity against LOLRI corresponding to COCc1nn(C(=O)OC(C)(C)C)cc1C(=O)N1CCCC1Cc1ccccc1F (racemic)
Result: 90

Request: Supply reported pre-emergence activity against LOLRI belonging to this molecule: COCc1nn(C)cc1C(=O)N1CCCC1Cc1c(F)cccc1F (racemic) [Example I-081]
Result: 100

Request: Could you please provide reported pre-emergence activity against LOLRI for COCc1nn(C)cc1C(=O)N1CCCC1Cc1ccccc1Br (racemic) ? Thanks!
Result: 100

Request: State its pre-emergence activity against LOLRI for this molecule: C=CCn1cc(C(=O)N2CCCC2Cc2ccccc2F)c(COC)n1 (racemic)
Result: 90

---

- Test system: POAAN
- ASSAY_OVERVIEW: B. Herbicidal post-emergence action on harmful plants (Tables B)
- Type: in vivo, Poa annua
- COND: application rate 1280 g/ha; Table B7a
OBSERVATION_TYPE: post-emergence activity against POAAN
Reply with the number, then its unit.

The following molecules have reported results that may help.
>  <MOLECULE>
COCc1nn(C)cc1C(=O)N1CCCC1Cc1c(F)cccc1F (racemic) [Example I-081]

>  <MEASURED_VALUE>
100%

$$$$
>  <MOLECULE>
COCc1nn(C)cc1C(=O)N1CCCC1Cc1ccccc1F (racemic) [Example I-002]

>  <MEASURED_VALUE>
90%

$$$$
>  <MOLECULE>
COCc1nn(C)cc1C(=O)N1CCCC1Cc1ccccc1F (single isomer, unassigned) [Example I-003]

>  <MEASURED_VALUE>
90%

$$$$
>  <MOLECULE>
COCc1c(C(=O)N2CCCC2Cc2c(F)cccc2Cl)cnn1C (single isomer, unassigned)

>  <MEASURED_VALUE>
90%

$$$$
>  <MOLECULE>
COCc1c(C(=O)N2CCCC2Cc2ccc(Cl)cc2Cl)cnn1C (racemic)

>  <MEASURED_VALUE>
90%

$$$$

Request: GET post-emergence activity against POAAN | system: POAAN | item: COCc1nn(C)cc1C(=O)N1CCCC1Cc1cccc(F)c1F (racemic) [Example I-077]
Result: 90%

Data origin: patent EP4417602A1
